Provenance of the data: paper PMC3267040

# target or test system: T1, BUBR1_(57-220), recombinant protein (human, UniProt O60566 57-220)
# T1 construct: BUBR1, human, residues 57-220 (TPR-containing domain); 15N,13C-labelled for NMR; also called native BUBR1; free BUBR1
# T1 sequence (O60566 57-220): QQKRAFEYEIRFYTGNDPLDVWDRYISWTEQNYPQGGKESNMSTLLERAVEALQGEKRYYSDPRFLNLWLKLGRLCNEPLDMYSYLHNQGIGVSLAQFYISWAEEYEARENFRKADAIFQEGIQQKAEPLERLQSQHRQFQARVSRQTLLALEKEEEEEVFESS
# assay summary: ITC; BUBR1_(57-220) at 27 μM titrated against 200 μM of Blinkin peptide S208-K226
# cond: both partners purified
pKd: −log10 of the molar value.
quantity kind: pKd

1. SSENKIDFNDFIKRLKTGK (peptide, UniProt Q8NG31-2 208-226, looked up, Blinkin (KNL1, CASC5), human, NCBI NP_653091.2, residues S208-K226; peptide synthesis is in the supplement; also called Blinkin peptide; source: synthetic peptide) [Blinkin S208-K226 peptide]; 5.03
